The following compounds are listed with their measured EC50 values.
# ASSAYED_TARGET: HEK cells stably transfected with tetracycline inducible hNR1 and hNR2A (Homo sapiens, UniProt Q05586+Q12879)
# Construct: expressed in transfected cells; host or cells: HEK cells, stably transfected, tetracycline/doxycycline inducible
# Sequence (Q12879 23-1464, other chains not shown): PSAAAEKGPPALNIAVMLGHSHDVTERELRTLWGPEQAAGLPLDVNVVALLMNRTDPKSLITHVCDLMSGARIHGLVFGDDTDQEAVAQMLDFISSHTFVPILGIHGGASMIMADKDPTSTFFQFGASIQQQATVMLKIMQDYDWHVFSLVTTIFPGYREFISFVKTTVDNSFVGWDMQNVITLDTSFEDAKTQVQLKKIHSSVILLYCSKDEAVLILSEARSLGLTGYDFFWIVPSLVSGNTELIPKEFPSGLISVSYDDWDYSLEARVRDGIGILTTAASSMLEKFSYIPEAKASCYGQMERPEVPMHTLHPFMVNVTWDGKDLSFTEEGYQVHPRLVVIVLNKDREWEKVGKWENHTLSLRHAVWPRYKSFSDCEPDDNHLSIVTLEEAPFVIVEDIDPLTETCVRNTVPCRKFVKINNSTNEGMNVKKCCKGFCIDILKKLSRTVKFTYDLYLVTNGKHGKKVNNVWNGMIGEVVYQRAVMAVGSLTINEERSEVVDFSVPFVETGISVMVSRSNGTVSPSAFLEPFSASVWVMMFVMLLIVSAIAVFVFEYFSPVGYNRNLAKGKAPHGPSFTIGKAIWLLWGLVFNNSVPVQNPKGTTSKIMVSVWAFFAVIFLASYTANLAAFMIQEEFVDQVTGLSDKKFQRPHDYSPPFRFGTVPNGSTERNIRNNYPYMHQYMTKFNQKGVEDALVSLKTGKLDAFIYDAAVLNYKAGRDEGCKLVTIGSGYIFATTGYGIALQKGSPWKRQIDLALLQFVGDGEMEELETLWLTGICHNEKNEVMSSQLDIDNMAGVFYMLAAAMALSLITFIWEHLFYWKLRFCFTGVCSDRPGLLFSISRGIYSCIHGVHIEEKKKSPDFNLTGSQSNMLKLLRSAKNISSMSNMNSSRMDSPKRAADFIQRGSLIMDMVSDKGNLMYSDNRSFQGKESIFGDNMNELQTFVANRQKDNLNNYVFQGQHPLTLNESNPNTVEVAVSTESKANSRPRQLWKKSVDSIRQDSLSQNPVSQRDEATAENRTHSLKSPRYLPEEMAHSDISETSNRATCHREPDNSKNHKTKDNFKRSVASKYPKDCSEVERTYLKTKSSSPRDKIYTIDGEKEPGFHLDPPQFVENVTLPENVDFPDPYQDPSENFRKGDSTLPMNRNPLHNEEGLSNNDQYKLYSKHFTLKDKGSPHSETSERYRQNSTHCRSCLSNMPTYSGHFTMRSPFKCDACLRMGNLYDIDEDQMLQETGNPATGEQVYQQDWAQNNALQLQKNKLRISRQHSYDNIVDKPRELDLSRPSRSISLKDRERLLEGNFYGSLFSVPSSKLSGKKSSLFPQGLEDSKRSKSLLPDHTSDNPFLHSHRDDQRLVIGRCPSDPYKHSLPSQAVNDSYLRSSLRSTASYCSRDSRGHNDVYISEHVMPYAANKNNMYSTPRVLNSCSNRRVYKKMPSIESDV
# EXPERIMENT_NOTES: Assay 1: Cell-Based Assay, cytosolic calcium response to positive allosteric modulators (with 30 μM glycine and 300 nM L-glutamate, EC30)
# STATED_CONDITIONS: Table 3; cytosolic calcium response, with 30 μM glycine and 300 nM L-glutamate (EC30); — = no plateau was reached
VALUE_TYPE: EC50 (nM)

>>> reported_result("CC(=O)c1c(C)sc2nc(Cn3nc(Cl)cc3C(F)(F)F)cc(=O)n12 [compound 120]")
995
>>> reported_result("CCC(=O)c1c(C)sc2nc(Cn3nc(Cl)cc3C(F)(F)F)cc(=O)n12 [compound 141]")
328
>>> reported_result("CC(=O)c1c(C(F)(F)F)sc2nc(Cc3cccc(C#N)c3F)cc(=O)n12 [compound 257]")
20500
>>> reported_result("Cc1sc2nc(Cc3cccc(C#N)c3F)cc(=O)n2c1N1CCC1 [compound 113]")
2370
>>> reported_result("Cc1sc2nc(Cc3cccc(C#N)c3F)cc(=O)n2c1C1CC1C(F)(F)F (stereo not shown) [compound 38]")
533
>>> reported_result("CCC(C)NC(=O)c1c(C)sc2nc(Cc3cccc(C(F)(F)F)c3F)cc(=O)n12 (stereo not shown) [compound 112]")
825
>>> reported_result("COc1cc(C(F)(F)F)nn1Cc1cc(=O)n2c(C3CC3C#N)c(C)sc2n1 (stereo not shown) [compound 209]")
66.6
>>> reported_result("CCc1sc2nc(Cn3nc(Cl)cc3C(F)(F)F)cc(=O)n2c1C(C)=O [compound 212]")
5840
>>> reported_result("Cc1sc2nc(Cn3nc(Cl)cc3C(F)(F)F)cc(=O)n2c1-c1cncnc1 [compound 122]")
9140
>>> reported_result("CNC(=O)c1c(C)sc2nc(Cn3nc(C(F)(F)F)cc3Cl)cc(=O)n12 [compound 96]")
1210
>>> reported_result("N#CC1CC1c1csc2nc(Cn3nc(C(F)(F)F)cc3Cl)cc(=O)n12 (stereo not shown) [compound 241]")
313
>>> reported_result("CSc1c(C(F)(F)F)sc2nc(Cn3nc(C(F)(F)F)cc3Cl)cc(=O)n12 [compound 219]")
10500
>>> reported_result("Cc1sc2nc(Cn3nc(Cl)cc3C(F)(F)F)cc(=O)n2c1C(C)C#N (stereo not shown) [compound 252]")
5760

###

The following compounds are listed with their measured Max % values.
# ASSAYED_TARGET: HEK cells stably transfected with tetracycline inducible hNR1 and hNR2A (Homo sapiens, UniProt Q05586+Q12879)
# Construct: expressed in transfected cells; host or cells: HEK cells, stably transfected, tetracycline/doxycycline inducible
# EXPERIMENT_NOTES: Assay 1: Cell-Based Assay, cytosolic calcium response to positive allosteric modulators (with 30 μM glycine and 300 nM L-glutamate, EC30)
# STATED_CONDITIONS: Table 2; responses scaled relative to 100 μM L-glutamate maximal response (100%) and 0 μM L-glutamate (0%)
VALUE_TYPE: Max % (%)

>>> reported_result("Cc1sc2nc(COc3ccc(F)cc3)cc(=O)n2c1[C@@H]1C[C@H]1C#N (single isomer, unassigned) [Example 4.21]")
47.4
>>> reported_result("CCNC(=O)c1c(C)sc2nc(Cc3cccc(C(F)(F)F)n3)cc(=O)n12 [Example 21.18]")
58.5
>>> reported_result("CCN(Cc1cc(=O)n2c(-c3ccc(=O)[nH]c3)c(C)sc2n1)c1ccc(F)cc1 [Example 5.50]")
96.8
>>> reported_result("CCN(Cc1cc(=O)n2c3c(sc2n1)CCC3COC)c1ccc(F)cc1 (stereo not shown) [Example 8.15]")
138
>>> reported_result("CCNC(=O)c1c(C2CC2)sc2nc(COc3ccc(F)cc3)cc(=O)n12 [Example 3.1]")
56.2
>>> reported_result("CCN(Cc1cc(=O)n2c(-c3ccn(C)n3)c(C)sc2n1)c1ccc(F)cc1 [Example 5.56]")
110
>>> reported_result("CCN(Cc1cc(=O)n2c(-c3ccsc3)c(C)sc2n1)c1ccc(F)cc1 [Example 5.47]")
151
>>> reported_result("CCN(Cc1cc(=O)n2c(N3CCOCC3)c(C)sc2n1)c1ccc(F)cc1 [Example 6.1]")
123
>>> reported_result("CCN(Cc1cc(=O)n2c(C#N)c(C)sc2n1)c1cccc(F)c1 [Example 7.2]")
134
>>> reported_result("Cc1sc2nc(Cn3nc(C4CC4)cc3C)cc(=O)n2c1[C@@H]1C[C@H]1CO (single isomer, unassigned) [Example 15.15]")
61.9
>>> reported_result("CCNC(=O)c1c(C)sc2nc(Cc3cccc(C(F)(F)F)c3)cc(=O)n12 [Example 21.7]")
100
>>> reported_result("Cc1sc2nc(COc3ccc(F)cc3)cc(=O)n2c1C1CC1C#N (single isomer, unassigned) [Example 4.20]")
93.9
>>> reported_result("CCNC(=O)c1c(C2CC2)sc2nc(Cn3nc(C(F)(F)F)cc3C3CC3)cc(=O)n12 [Example 16.6]")
140
>>> reported_result("Cc1sc2nc(COc3ccc(F)cc3)cc(=O)n2c1C1(O)COC1 [Example 4.32]")
50.2
>>> reported_result("Cc1sc2nc(Cc3cccc(C(F)(F)F)c3)cc(=O)n2c1[C@@H]1C[C@H]1CO (relative stereo) [Example 20.5]")
124
>>> reported_result("CCNC(=O)c1c(C)sc2nc(Cc3cccc(C4CC4)c3F)cc(=O)n12 [Example 21.25]")
105
